experimental.system: T1, VP1 pentamer of BKV genotype II (recombinant) (BK virus genotype II, UniProt P14996 30-300)
T1 construct: also called GII; VP1 geno II pentamer; not shown: N-terminal His-tag of pESPRIT002; C-terminal biotin acceptor peptide (BAP) of pESPRIT002
procedure.summary: ELISA, coated VP1 pentamer
property.label: log10 of EC50 (log10 of the value in µg/mL)
Remember, log10 of EC50, in µg/mL.

Sample antibody E4P2 (antibody, V domains shown) VH: QVQLQESGPGLVKPSQTLSLTCTVSGGSISSGGYYWSWIRQHPGKGLEWIGYMYYSGSTNYNPSLKSRVTISVDTSKNQFSLKLTSVTAADTAVYYCARDRRDYGDYYYFGMDVWGQGTTVTVSS VL: QSVLTQPPSVSGAPGQRVTISCTGSSSNIGAGYDVHWYQQLPGTAPKLLIYANSNRPSGVPDRFSGSKSGTSASLAITGLQAEDEANYYCQSYDSSLSVYVVFGGGTKLTVL ; log10 of EC50 observed: -1.60

The recorded log10 of EC50 for antibody C4P6 (antibody, V domains shown) VH: QVQLQESGPGLVRPSETLSLTCTVSGGSISPYYWNWIRQPPGKGLEWIGYIYYSGNTKYNPSLKSRVTISVDTSKNQFSLKLSSVSAADTAVYYCARDSCSGTCYLGGNWFDPWGQGTLVTVSS VL: QSVLTQPPSVSGAPGQRVTISCTGSSSNIGANNDVHWYQHLPGTAPKLLIYGNNHRPSGVPDRFSGSKSGTSASLAITGLQAEDEADYYCQSYDSSLSTSKVFGGGTKLTVL is 0.40

// antibody C10P7 (antibody, V domains shown) VH: QVQLVQSGSEVKKPGTSVKVSCKASGETYVGHSISWVRQAPGAGLEWMGWISLHNGNVKYAQKLQGRVTMTTDTSTITAYMELRNLTSDDTAVYYCARVPMKIYGVIVFGEYYYDQLDVWGQGTTVTVSS VL: QSALTQPPSASGSPGQSVTISCTGTGSDVGGYNYVSWYQQHPGKAPKLMIYEVSKRPSGVPDRFSGSKSGNTASLTVSGLQAEDEADYYCSSYAGSKVVFGGGTKLTVL : log10 of EC50 value = 0.90

Value of measured log10 of EC50 for the entry antibody F3P6 (antibody, V domains shown) VH: QVQLVQSGAEVKKPGASVKVSCKASGYTFTTHIIHWVRQAPGQRLEWMGWINAGNGNTHYSEKFQGRVTLTRDTSASTAYMELSSLRSEDTAIYYCAREDQWLGRSPLEYWGQGTLVTVSS VL: EIVLTQSPGTLSLSPGERATLSCRASQSVSSSYLAWYQHKPGQAPRLLIYGASSRATGIPDRFSGSGSGTDFTLTISRLEPEDFAVYYCQQYGNSYPWTFGQGTKVEIK : -0.82
